Listed next: entries and their corresponding GI50.
# Tested on: NCI-H460
# Assay Overview: Cytotoxicity against human NCI-H460 cells
# Format: functional

# Molecular String, GI50
rows = [
    ("c1ccc(C(=NNc2ncnc3sc4c(c23)CCCC4)c2ccccc2)cc1", "> 170 µM"),
    ("C(=N\\Nc1ncnc2sc3c(c12)CCCC3)/c1ccc2c(c1)OCO2", "> 250 µM"),
    ("C(=N\\Nc1ncnc2sc3c(c12)CCCC3)/c1ccncc1", "169 µM"),
]

====

# Tested on: DU-145
# Assay Overview: Cytotoxicity against human DU145 cells
# Format: functional
Measured Attribute: log10 GI50 (log10 of the value in µM)

# Molecular String, Measured Attribute, Assay Value
records = [
    ("Fc1ccc(/C=N/Nc2ncnc3sc4c(c23)CCCC4)cc1", "log10 GI50", 1.14),
    ("Brc1ccc(/C=N/Nc2ncnc3sc4c(c23)CCCC4)cc1", "log10 GI50", 1.16),
    ("CC(C)(C)c1ccc(/C=N/Nc2ncnc3sc4c(c23)CCCC4)cc1", "log10 GI50", 1.34),
    ("C(=C\\c1ccccc1)/C=N/Nc1ncnc2sc3c(c12)CCCC3", "log10 GI50", 0.73),
    ("FC(F)(F)c1ccccc1/C=N/Nc1ncnc2sc3c(c12)CCCC3", "log10 GI50", 0.54),
    ("Clc1ccc(/C=N/Nc2ncnc3sc4c(c23)CCCC4)cc1", "log10 GI50", 1.16),
    ("COc1cc(/C=N/Nc2ncnc3sc4c(c23)CCCC4)cc(OC)c1O", "log10 GI50", 1.43),
    ("CC(C)(C)/C=N/Nc1ncnc2sc3c(c12)CCCC3", "log10 GI50", 1.40),
    ("Clc1ccccc1/C=N/Nc1ncnc2sc3c(c12)CCCC3", "log10 GI50", 1.89),
    ("CC(C)=NNc1ncnc2sc3c(c12)CCCC3", "log10 GI50", 1.06),
    ("Oc1ccc(/C=N/Nc2ncnc3sc4c(c23)CCCC4)cc1", "log10 GI50", 1.32),
    ("C(=N\\Nc1ncnc2sc3c(c12)CCCC3)/c1ccccc1", "log10 GI50", 1.30),
]

====

# Assay Overview: Selectivity index, ratio of IC50 for african green monkey Vero cells to IC50 for Trypanosoma cruzi tulahuen C4
# Condition Info: Vero cells
# note: exactly 1 is not below, so it is FALSE; use TRUE for selectivity ratio strictly under it

# Molecular String, Assigned Label
rows = [
    ("C(=C\\c1ccccc1)/C=N/Nc1ncnc2sc3c(c12)CCCC3", "FALSE"),
    ("CC(C)(C)c1ccc(/C=N/Nc2ncnc3sc4c(c23)CCCC4)cc1", "FALSE"),
    ("Brc1ccc(/C=N/Nc2ncnc3sc4c(c23)CCCC4)cc1", "TRUE"),
    ("CC(C)c1ccc(/C=N/Nc2ncnc3sc4c(c23)CCCC4)cc1", "TRUE"),
    ("FC(F)(F)c1ccccc1/C=N/Nc1ncnc2sc3c(c12)CCCC3", "TRUE"),
    ("Fc1ccccc1/C=N/Nc1ncnc2sc3c(c12)CCCC3", "FALSE"),
    ("C(=N\\Nc1ncnc2sc3c(c12)CCCC3)/c1ccc2c(c1)OCO2", "TRUE"),
    ("C(=N\\Nc1ncnc2sc3c(c12)CCCC3)/c1ccccc1", "FALSE"),
    ("C(=N\\Nc1ncnc2sc3c(c12)CCCC3)/c1ccc2ccccc2c1", "FALSE"),
    ("COc1ccc(/C=N/Nc2ncnc3sc4c(c23)CCCC4)cc1", "FALSE"),
    ("Clc1ccc(/C=N/Nc2ncnc3sc4c(c23)CCCC4)cc1", "FALSE"),
    ("COc1cccc(/C=N/Nc2ncnc3sc4c(c23)CCCC4)c1", "TRUE"),
    ("CC(C)=NNc1ncnc2sc3c(c12)CCCC3", "FALSE"),
    ("C(=N\\Nc1ncnc2sc3c(c12)CCCC3)/c1ccco1", "TRUE"),
    ("Brc1ccccc1/C=N/Nc1ncnc2sc3c(c12)CCCC3", "TRUE"),
    ("C(=N\\Nc1ncnc2sc3c(c12)CCCC3)/c1cccc2ccccc12", "TRUE"),
    ("C(=N\\Nc1ncnc2sc3c(c12)CCCC3)/c1ccc[nH]1", "TRUE"),
    ("Oc1ccc(/C=N/Nc2ncnc3sc4c(c23)CCCC4)cc1", "FALSE"),
    ("C/C(=N/Nc1ncnc2sc3c(c12)CCCC3)c1ccccc1", "TRUE"),
]

Hello, the source for this data is ChEMBL document CHEMBL1156236, in case you need it.
